STUDY TARGET: T1, human CD25 (human, UniProt P01589 22-213, limits assumed)
T1 construct: Recombinant soluble human CD25, coated on plates (ELISA) or injected over captured antibody (BIAcore); also called hCD25; IL2-R alpha
T1 sequence (looked up): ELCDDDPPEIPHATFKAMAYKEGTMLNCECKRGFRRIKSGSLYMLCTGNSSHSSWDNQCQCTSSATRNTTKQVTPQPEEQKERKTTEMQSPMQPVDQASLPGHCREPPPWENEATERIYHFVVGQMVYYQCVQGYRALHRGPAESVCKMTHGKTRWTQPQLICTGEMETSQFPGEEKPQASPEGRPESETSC
ASSAY PROTOCOL: SPR (BIAcore)
Would you kindly list pKd for each of these binders?
// field semantics: pKd = negative decimal log of concentration (mol/L)

Req: Look at this binder and give its reported pKd. Variant C34 (antibody, V domains shown, Isotype as printed: G2M3.QL) VH: QVQLVQSGAEVKKPGSSVKVSCKASGYTFTSYRMHWVRQAPGQGLEWMGYIKPSRGYTEYNQKFKDKATITADESTNTAYMELSSLRSEDTAVYYCARGGGVFDYWGQGTLVTVSS VL: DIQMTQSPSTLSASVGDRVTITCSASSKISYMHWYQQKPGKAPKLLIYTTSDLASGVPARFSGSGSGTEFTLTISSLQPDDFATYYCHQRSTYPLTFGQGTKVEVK
Resp: 10.68

Req: Look at this binder and give its reported pKd. Variant C38 (antibody, name in Kabat numbering, V domains shown, Isotype as printed: G2M3.QL) VH: QVQLVQSGAEVKKPGSSVKVSCKASGYTFTSYRMHWVRQAPGQGLEWMGYISPRKGYTEYNQKFKDKATITADESTNTAYMELSSLRSEDTAVYYCARGGGVFDYWGQGTLVTVSS VL: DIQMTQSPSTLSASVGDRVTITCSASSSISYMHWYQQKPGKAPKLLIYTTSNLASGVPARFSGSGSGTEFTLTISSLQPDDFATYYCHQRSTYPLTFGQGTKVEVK
Resp: 11.02

Req: Look at this binder and give its reported pKd. Variant C40 (antibody, name in Kabat numbering, V domains shown, Isotype as printed: G2M3.QL) VH: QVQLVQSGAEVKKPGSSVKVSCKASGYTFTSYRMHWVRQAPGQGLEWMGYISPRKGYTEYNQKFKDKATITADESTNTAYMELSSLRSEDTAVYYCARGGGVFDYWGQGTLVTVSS VL: DIQMTQSPSTLSASVGDRVTITCSASSSISYMHWYQQKPGKAPKLLIYTTSELASGVPARFSGSGSGTEFTLTISSLQPDDFATYYCHQRSTYPLTFGQGTKVEVK
Resp: 10.92

Req: Look at this binder and give its reported pKd. Variant C28 (antibody, V domains shown, Isotype as printed: G2M3.QL) VH: QVQLVQSGAEVKKPGSSVKVSCKASGYTFTSYRMHWVRQAPGQGLEWMGYINPSSGYTEYNQKFKDKATITADESTNTAYMELSSLRSEDTAVYYCARGGGVFDYWGQGTLVTVSS VL: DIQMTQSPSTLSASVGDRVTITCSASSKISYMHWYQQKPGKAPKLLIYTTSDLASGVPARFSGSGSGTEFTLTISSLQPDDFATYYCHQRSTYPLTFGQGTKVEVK
Resp: 10.27

Req: Look at this binder and give its reported pKd. Variant C35 (antibody, name in Kabat numbering, V domains shown, Isotype as printed: G2M3.QL) VH: QVQLVQSGAEVKKPGSSVKVSCKASGYTFTSYRMHWVRQAPGQGLEWMGYIKPSRGYTEYNQKFKDKATITADESTNTAYMELSSLRSEDTAVYYCARGGGVFDYWGQGTLVTVSS VL: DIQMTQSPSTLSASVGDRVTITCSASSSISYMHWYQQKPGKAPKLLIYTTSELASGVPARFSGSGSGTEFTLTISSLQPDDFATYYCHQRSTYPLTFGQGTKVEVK
Resp: 10.47
